# System: MS2 coat protein
# assay-procedure: apparent Kd, MS2 coat protein; higher = weaker binding; RNA-MaP array; FMN 200 µM where present
# condition: ligand present: flavin mononucleotide; designed as: OFF switch for flavin mononucleotide
Classify by measured apparent Kd: Yes if it is equal to or exceeds 20 nM, No if it is smaller.

API: above_or_equal(metric=apparent Kd, cutoff=20 nM) for item `CAGCGAAAGUAGAAGGCAGUACUGAUACAGUACUGAGGAUAUACAUGAGGAUCACCCAUGUACUUCAGCUGGAAAUAAAUAAAU` No

Tell me whether apparent Kd is at least 20 nM here: `AUUUCGUCAGGAUAUCCUAGUAAUUGUUUCAUAUUUACAAAGGAGAAGGGACAUGAGGAUCACCCAUGUUGGUC` Yes

Decide: apparent Kd of `AAGAAGUCAGGAUAUGCUGCUCGUCACUUGCGUGAUGAGUAGCAGAAGGGACAUGAGGAUCACCCAUGUGGAGA` >= 20 nM? Yes

Has `UGUCGGAGCAGAGGAUAUUACAUGAGGAUCACCCAUGUAUGAACCAAUAGCUGGAAACAGAAAUGUAAGAAGGCUGCUCCGACA` a recorded apparent Kd greater than or equal to 20 nM? Yes

Quick check, apparent Kd >= 20 nM? `CACGUACAUGAGGAUCACCCAUGUUAGGAUAUGUUUACCGGAAGGCAUUCUUGGGUAAACAGAAGGGACGAAAC` Yes

Quick check: does `CUUGGCUAGGAGAAGGGCUAGAGUGUGAUAUAUUUGCCCGCGAGCACAUGAGGAUCACCCAUGUAGCAGGAUAUCCAAGCCGGU` have apparent Kd greater than or equal to 20 nM? No

Please check the record `AAUAUGAGCUGGUAAAUAAAACCGACAUGAGGAUCACCCAUGUAGGAUAUCAGCACGAUAAGUGCUGAGAAGGACAUCCAGCUC` and state if its apparent Kd is at or above 20 nM. No

====

# System: MS2 coat protein
# assay-procedure: apparent Kd, MS2 coat protein; higher = weaker binding; RNA-MaP array; FMN 200 µM where present
# condition: designed as: OFF switch for flavin mononucleotide; no ligand
Listed here: items and their measured apparent Kd.
Entry rule: numbers only, all in nM.

In [3]: df
Out[3]:
                                   sequence  result_unit  quantitative_result
0  UUGUUGUGUGUAGGAUAUGCAUAUUAUUAUUAUGCAGAAGGACAUGAGGAUCACCCAUGUGUAUUAUUAUUAUAUAUUAUAUAU           nM                 24.6

apparent Kd measured on `UUUUAACAUGAGGAUCACCCAUGUGAGGAUAUCGAAAUUUAUAUUAAUAUUUAUUUUACGAGAAGGCACAUUUU` = 98

// field: apparent Kd; key: `CGUACUCAAGUGAGGAUAUUGUCUCGGAUACGAAACAAGAAGGCACAUGAGGAUCACCCAUGUAGAGAGUACGA` ; value = 16.2

Item: `UGGGCUACGUGGUCCGCCAGACGUAGAAGGGUCUACAUGAGGAUCACCCAUGUGACCGUUAGUGGACAGGAUAUACGCGGAGUG` | apparent Kd: 8.38

====

# System: MS2 coat protein
# assay-procedure: apparent Kd, MS2 coat protein; higher = weaker binding; RNA-MaP array; FMN 200 µM where present
# condition: ligand present: flavin mononucleotide; designed as: OFF switch for flavin mononucleotide
quantity: apparent Kd (nM)
All answers are understood in nM, so give the number only.

Field: example entries. Status: answers known.
>>> print(df.to_string())
                                   sequence     tested_system  result_unit  quantitative_result
0  UCAUGGAAGUAGAAGGGUAAUAUAUUAGAUUUUACUAUUAGAUGUAGAUAUACAGGAUAUGCGAACAUGAGGAUCACCCAUGUG  MS2 coat protein           nM                 35.6
1  AUUAUAUAGACAGGAUAUUGAUUAUUAUUUUAACAUGAGGAUCACCCAUGUAGCCUUAUGUAUAGCAAGAAGGGUCAUUUAUUA  MS2 coat protein           nM                  206
2  GUCGGAAACGACAAUGAUAGGACUGAGGAUAUACAUAAGUUUGUCCAUACAUGAGGAUCACCCAUGUAGAAGGCAGUCCUAUCU  MS2 coat protein           nM                 15.9
3  GUGAGGUCAGGAUAUGCAUGGCGGGACUUGCGUCGUGGCGUGGAGAAGGGACAUGAGGAUCACCCAUGUGGAGA  MS2 coat protein           nM                 63.1
4  GUGCGGAACCUAGGAUAUCCGACAUGGACAGGUGGUAAGUCUCCCACAUGAGGAUCACCCAUGUAGGAGAAGGAGGAUCACGGG  MS2 coat protein           nM                 7.39
5  UGUGAGUUGAUGUUAGAUCGGAGUACAUGAGGAUCACCCAUGUAGGAUAUUCAAAGACGCAGAUAGAAGAAGGACAUAGGUUUC  MS2 coat protein           nM                 14.3

Moving on to another sequence below.
Lab book: apparent Kd of `UUUAUAAAGAAAGGAUAUAGUAUAAUAAUUUAAUUAGAAGGUUCACACAUGAGGAUCACCCAUGUAUGAGGAUCACCCAUGUAU` noted as 29.1

====

# System: MS2 coat protein
# assay-procedure: apparent Kd, MS2 coat protein; higher = weaker binding; RNA-MaP array; FMN 200 µM where present
# condition: designed as: ON switch for flavin mononucleotide; no ligand
apparent Kd: recorded values
Return type: number; implicit unit nM.

The examples below pair each entry with its known result.
>>> df
                                   sequence     tested_system     quantity  quantitative_result
0  AAUUAACUCACAGGAUAUAGCAGAGGUCGAGUGAACUUACACGCGACGAGGCUAGAAGGGUGACCACAUGAGGAUCACCCAUGU  MS2 coat protein  apparent Kd                  872
1  GGAUGAGCAAUAGGAUAUGCUGGUAUUGAAUGGGUAGAAGGAUUUCUAGUGGUAAAGACAUGAGGAUCACCCAUGUAGCGGCCC  MS2 coat protein  apparent Kd                  328
2  UUGCCUCAGAACAUGAGGAUCACCCAUGUGCUGCGGGCAACGUAGGAUAUGAUGGUAUGAUACCGUCAGAAGGAUGAUGGUACC  MS2 coat protein  apparent Kd                 5.86
3  GUACCUUAUGAGAAGGCGAUCAUGAAACAUGAUCGAGGAUAUCAUGUAAACAUGAGGAUCACCCAUGUAUGGGUAUUAUGGUAC  MS2 coat protein  apparent Kd                  191

Record `GGUGCACGCACAGGAUAUCCGGCGAAGCUCGUCGGAGAAGGGUGACAUGAGGAUCACCCAUGUACGUGCAACCCAGUUUGAGAG` , field apparent Kd: 85.2

Consider `GGGUACAUCGGAGGAUAUCAUGUAAAUACAUGAGGAUCACCCAUGUCGUACGAGAGUACGGAGAUUGAGAAGGCCGAUGUACCG` . Its measured apparent Kd is 24.9

Memo: `GGACAUGGGAAACCACAUGGAGAUAAGGAUAUAUAGAUGACAUGAGGAUCACCCAUGUAUGGCGAAUAGAAGGUAUGAGUGUGA` , reported apparent Kd: 153

Reported apparent Kd of `AAAUGAUAGUCAGGAUAUAAGUUGGAGCCUCGGUCGCACAUGAGGAUCACCCAUGUGUCUUGGAUUUAGAAGGGACAGAUGGGC` : 682

Query `GCCAAUAAGAUUGGCACCGGCGCGCAGGAUAUGCUGGCCUACAUGAGGAUCACCCAUGUCUAAAUGCAGAAGGGUGAGCUGAGC` yields apparent Kd of 444

The recorded apparent Kd for entry `UCAUACAUUCGAGGAUAUCGGUGAUUAAUUUUACGAGAAGGCGAUAUAAGAUUUAAUUUUUAAGACAUGAGGAUCACCCAUGUA` equals 30.7

For this sequence ( `UGGUACUAGGGAGGAUAUGGGAAGAUACAUGAGGAUCACCCAUGUUUAAGAAUGCCGAGAGGUAACUAGAAGGCCCUAGUACCU` ), measured apparent Kd is 455

====

# System: MS2 coat protein
# assay-procedure: apparent Kd, MS2 coat protein; higher = weaker binding; RNA-MaP array; FMN 200 µM where present
# condition: ligand present: flavin mononucleotide; designed as: ON switch for flavin mononucleotide
Label rule met when apparent Kd is at or above 30 nM; otherwise label rule not met.

>>> df
                                   sequence     tested_system  assigned_category
0  UCGAAAAUGCAAGGAUAUCAAUUAUAGCUAAAUUAGACAUGAGGAUCACCCAUGUAAAUAUGGAGUGAGAAGGUGCAAUAAUUU  MS2 coat protein           rule met

Query sequence follows.
Check the entry `AGGUCAACCACAGGAUAUGGCUAGCAUAGCUAGCCAGAAGGGUGGUCGUUGCCAUGUAAAUACAUGAGGAUCACCCAUGUAUCC` : does apparent Kd equal or exceed 30 nM? rule met

Where do these numbers come from? They come from the EternaBench riboswitch data.
